Reported pKd values for the following binders.
Target: T1, human IL-17F with C-terminal Avi-tag, biotinylated, immobilized on BLI sensors (human, UniProt Q96PD4 31-163, biotin on the C-terminal Avi-tag (BirA))
T1 construct: also called biotinylated IL-17F; not shown: C-terminal Avi-tag
T1 sequence: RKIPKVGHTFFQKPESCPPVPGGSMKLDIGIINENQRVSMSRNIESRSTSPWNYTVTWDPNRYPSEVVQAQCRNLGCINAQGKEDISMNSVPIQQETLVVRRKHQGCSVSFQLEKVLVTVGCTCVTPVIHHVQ
Assay: BLI, biotinylated IL-17F immobilized, monovalent VHH as analyte
pKd: −log10 of the molar value.

BINDER | pKd
Bm44B11 (VHH, Class A, second generation) VHH: QVQLVESGGGLVQAGGSLNLSCVISRRTPSGYAMGWFRQASGKEREFVAAISWIGGGAVYADSVKGRFTMSRDNAKNTVYLQMNSLKPEDTAVYYCNDMPYGLDTTMDDYDYWGQGTQVTVSS | 10.05
Re42B04a (VHH, Class A; Monovalent VHH) VHH: QVQLVESGGGLVQVGGSLRLSCEVSGLPVSSYAMGWFRQAPEKEREFVAAISWIGGDSRYAHFVKGRFTISRDNAKNTVHLQMDSLKPEDTAVYYCNDMPYGLDTRMDEYEYWGQGTQVTVSS | 9.30
Bm44C09 (VHH, Class A, second generation) VHH: QVQLVESGGGLVQAGGSLRLSCAASGLAVSSYAMGWFRQAPGKEREFVAAISWISGGTKYADSVKDRFTMSRDNAKKQVYLEMNSLKPEDTAVYYCNDMPYGLDTRMDDYKYWGQGIQVTVSS | 10.00
Bm42B11 (VHH, Class A, second generation) VHH: QVQLVESGGDLVQAGGSLRLSCSVSGLRVSSYAMGWFRQAPGKEREFVAAISWVGGDTRYADSVKGRFTMSRDNAKKQVYLEMNSLKPEDTAVYYCNDMPYGMETRMDDYASWGQGTQVTVSS | 8.70
VHH662 (VHH, Control VHH of Ablynx, disclosed in WO2012156219) VHH: EVQLVESGGGSVQAGDSLRLSCAASGRANSINWFGWFRQTPGKEREFVAGIRWSDAYTEYANSVKGRFTISRDNAKNTVDLQMDSLKPEDTAVYYCVLDLSTVRYWGQGTQVTVSS | 7.80
Bm45G07 (VHH, Class D, second generation) VHH: QVQLVESGGGFVQAGGSLKLSCSVSGNTFITNHMGWFRQPPGKGREFVAGIRWSDGSTFYGDSVRGRFTISGDNAKHTLYLQMNSLKPDDTAVYYCYIDSGSDRYYGQGTLVTVSS | 8.40
Bm43B02 (VHH, Class A, second generation) VHH: QVQLVESGGGLVQAGGSLNLSCVISRRTPSGYAMGWFRQASGKEREFVAAISWIGGGAVYADSVKGRFTMSRDNAKNTVYLQMNSLKPEDTAVYYCNDMPYGLDTTMDDYDYWGQGTLVTVSS | 10.12
VHH664 (VHH, Control VHH of Ablynx, disclosed in WO2012156219) VHH: EVQLVESGGGLVQAGGSLRLSCAASGRTYDAMGWLRQAPGKEREFVAAISGSGDDTYYADSVKGRFTISKDNAGITMYLQMNSLKPEDTAVYYCATRRGLYYVWDSNDYENWGQGTQVTVSS | 7.92
